Attribution: PubChem BioAssay (NCI)

System: HCT-15 colon
Protocol Description: NCI tumour cell line growth inhibition, 48 h
TGI for assorted compounds

[
  {
    "Compound": "Cc1ccc(Cl)cc1Nc1nc(C(F)(F)F)ccc1C(=O)N1CCN(c2ccc(F)cc2)CC1",
    "Data Value": "29.3 µM"
  },
  {
    "Compound": "Cc1ccc(S(=O)(=O)NCC2CCCCC2=O)cc1 (stereo not given)",
    "Data Value": "> 100 µM"
  },
  {
    "Compound": "COC(C)(C)C1=CCC(C)CC1 (stereo not given)",
    "Data Value": "> 100 µM"
  }
]

Enquiry: Which TGI is listed for O=Cc1cc2c(cc1-c1c(C=O)ccc3c1OCO3)OCO2 ?
Return: > 10 µM

Enquiry: Which TGI is listed for O=C(c1ccc(O)cc1)C1c2c3c(cc(O)c2C(c2ccc(O)cc2)C1c1cc(O)cc(O)c1)OC(c1ccc(O)cc1)C3c1cc2c(cc1O)OC(c1ccc(O)cc1)C2c1cc(O)cc(O)c1 (stereo not given) ?
Return: > 12.5 µM

----------
Test system: A549 NSCLC
Protocol Description: NCI tumour cell line growth inhibition, 48 h
Measurement Label: TGI

Example entries and their recorded answers appear below.
[
  {
    "Molecule": "O=C1OC[C@@H]2Cc3cc4c(cc3[C@H](c3ccc5c(c3)OCO5)[C@@H]12)OCO4",
    "Data Value": "> 25 µM"
  },
  {
    "Molecule": "S=C(N/N=C/c1ccco1)NC12CC3CC(CC(C3)C1)C2",
    "Data Value": "> 100 µM"
  },
  {
    "Molecule": "O=S(=O)(c1ccccc1)n1c2cc3cccnc3nc2c2cccnc21",
    "Data Value": "> 100 µM"
  },
  {
    "Molecule": "CCC1(CC)SCc2nc3ccccc3n21",
    "Data Value": "> 100 µM"
  },
  {
    "Molecule": "O=S(O)CCCCSSCC(O)C(O)CSSCCCCS(=O)O (configuration not stated)",
    "Data Value": "> 100 µM"
  }
]

Enquiry: Which TGI is listed for COC(=O)C1=C(C)N(NC(=O)c2ccccc2)C(C)(O)C12CCOC2=O (configuration not stated) ?
Return: > 100 µM

Enquiry: Which TGI is listed for O=C(O)c1nc(-c2ccccc2)ncc1-c1nnnn1-c1ccccc1 ?
Return: > 100 µM

Enquiry: Which TGI is listed for O=c1[nH]c(-c2ccc3ccccc3c2)nc2ccccc12 ?
Return: > 100 µM

Enquiry: Which TGI is listed for COc1ccc(OC)c(NC(=O)C(=O)NNC(=O)c2sc(NNC(C)=O)nc2C)c1 ?
Return: > 100 µM

----------
System: COLO 205 colon
Protocol Description: NCI tumour cell line growth inhibition, 48 h
Measurement Label: TGI (µM)
Enter your answer as a number in µM; do not include the unit.

Enquiry: Recorded TGI for NC(=NCCCOc1ccc(Cl)cc1)Nc1ccc(C(F)(F)F)cc1 with COLO 205 colon, please?
Return: 3.25

Enquiry: Recorded TGI for C=C(C=O)[C@@H]1C2OC(=O)C(=C)[C@@H]2CC(O)[C@@]1(C)CC (some centres undefined) with COLO 205 colon, please?
Return: 11.7

----------
Tested on: 786-0 renal
Protocol Description: NCI tumour cell line growth inhibition, 48 h; in the data active means GI50 below about 0.43 µM; inactive means the rest
The categories you may choose from are active, inactive

The examples below pair each entry with its known result.
[
  {
    "Smiles Text": "O=S(=O)([O-])c1ccc2c(c1)-c1nc-2nc2[n-]c(nc3nc(nc4[n-]c(n1)c1ccc(S(=O)(=O)[O-])cc41)-c1cc(S(=O)(=O)[O-])ccc1-3)c1ccc(S(=O)(=O)[O-])cc21.[Cu+2].[Na+]",
    "Classification": "inactive"
  },
  {
    "Smiles Text": "COc1cc(C(=O)c2cc(C)c3[nH]c4ccc(Cl)cc4c3c2C)cc(OC)c1OC",
    "Classification": "active"
  },
  {
    "Smiles Text": "Cc1c2cccnc2c(C)c2c1c1cc(CO)ccc1n2C",
    "Classification": "inactive"
  },
  {
    "Smiles Text": "Clc1ccc2c(NCCCNc3nccc(Nc4ccc(Br)cc4)n3)ccnc2c1",
    "Classification": "inactive"
  }
]

Enquiry: What did the test return for CCOc1nc(-c2ccccc2)cc2c(O)c(-c3nnco3)[nH]c(=O)c12 ?
Return: inactive

----------
System: K-562 leukemia
Protocol Description: NCI tumour cell line growth inhibition, 48 h
Measurement Label: TGI (µM)
Enter your answer as a number in µM; do not include the unit.

[
  {
    "Compound": "CCN(CC)CCOc1ccc(/C=C(\\C#N)c2ccc(OCCN(CC)CC)cc2)cc1",
    "Measured On": "K-562 leukemia",
    "TGI (µM)": 23.5
  },
  {
    "Compound": "CCCCCCCCCCCCCCCCCCNc1ccn(C2OC(COP(=O)(O)OCC3OC(n4cc(C)c(=O)[nH]c4=O)CC3O)C(O)C2O)c(=O)n1 (centres undefined)",
    "Measured On": "K-562 leukemia",
    "TGI (µM)": 50.2
  },
  {
    "Compound": "Cc1nc2ccccc2c(=O)n1NC(=O)c1ccc(CS)cc1",
    "Measured On": "K-562 leukemia",
    "TGI (µM)": 68.1
  }
]

Enquiry: Recorded TGI for O=[N+]([O-])c1ccc(/C=N/n2c(CO)nc3ccccc32)o1 with K-562 leukemia, please?
Return: 62.7

----------
GI50 for assorted compounds
Test system: NCI-H226 lung
Protocol Description: NCI tumour cell line growth inhibition, 48 h

Example entries and their recorded answers appear below.
[
  {
    "Compound": "CC(SC(C)C(=O)N/N=C/c1cccc(Cl)c1)C(=O)N/N=C\\c1cccc(Cl)c1 (configuration not stated)",
    "Measured On": "NCI-H226 lung",
    "GI50": "17.5 µM"
  },
  {
    "Compound": "Cn1cc(C2=C(c3ccc4ccccc4c3)C(=O)NC2=O)c2ccccc21",
    "Measured On": "NCI-H226 lung",
    "GI50": "> 25 µM"
  },
  {
    "Compound": "Cn1c(=O)c2c(nc(Nc3cc(=O)[nH]c(=O)[nH]3)n2Cc2ccccc2)n(C)c1=O",
    "Measured On": "NCI-H226 lung",
    "GI50": "> 100 µM"
  },
  {
    "Compound": "C=CC1CC12C(=O)C1OC2(C)C2C(=O)c3cc4ccccc4cc3C(=O)C12 (configuration not stated)",
    "Measured On": "NCI-H226 lung",
    "GI50": "21.5 µM"
  },
  {
    "Compound": "C/C(=C\\CCc1ccoc1)CC/C=C(\\C)CCCC1=CC(=O)OC1",
    "Measured On": "NCI-H226 lung",
    "GI50": "11 µM"
  },
  {
    "Compound": "COc1ncnc(C2CC2)c1-c1ncc2cnn(Cc3ccc(-c4nc(C(F)(F)F)cn4C(C)C)cc3)c2n1",
    "Measured On": "NCI-H226 lung",
    "GI50": "9.08 µM"
  }
]

Enquiry: Which GI50 is listed for CNCCNc1c2c(c(NCCNC)c3c(CN(C)C)c[nH]c13)C(=O)c1ccccc1C2=O ?
Return: 6.69 µM

Enquiry: Which GI50 is listed for COc1ccc2c(c1)C(C)Cc1c(Cl)ncnc1N2C (configuration not stated) ?
Return: 0.213 µM

Enquiry: Which GI50 is listed for Clc1ccc2c(NCCCNc3nccc(Nc4ccc(Br)cc4)n3)ccnc2c1 ?
Return: 2.74 µM

Enquiry: Which GI50 is listed for Cc1ccc(Cl)cc1Nc1nc(C(F)(F)F)ccc1C(=O)N1CCN(c2ccc(F)cc2)CC1 ?
Return: 15.5 µM

Enquiry: Which GI50 is listed for CC(C)(C)C(=O)OCOP(=O)(OCOC(=O)C(C)(C)C)C1CCCN(O)C1=O (configuration not stated) ?
Return: 0.996 µM

Enquiry: Which GI50 is listed for NC(=NCCCOc1ccc(Cl)cc1)Nc1ccc(C(F)(F)F)cc1 ?
Return: 3.87 µM

----------
Test system: HT29 colon
Protocol Description: NCI tumour cell line growth inhibition, 48 h
Measurement Label: log10 TGI (log10 of the value in µM)
Form field - Quantity: TGI; Unit: µM; Scale: log10

Example entries and their recorded answers appear below.
[
  {
    "Compound": "CC(=O)Nc1cc(C(=O)Nc2cc(C(=O)N3CC(CCl)c4c3cc(N)c3ccccc43)nn2C)nn1C (stereo not drawn)",
    "Data Value": 0.08
  },
  {
    "Compound": "C=C(F)C(=O)N1CCN(c2nc(OC[C@@H]3CCCN3C)nc3c2CCN(c2cccc4cccc(Cl)c24)C3)C[C@@H]1CC#N",
    "Data Value": 0.38
  },
  {
    "Compound": "CC1=C(C#N)C(C#N)(C#N)C(NN(C)C)C1 (stereo not drawn)",
    "Data Value": 1.58
  },
  {
    "Compound": "COc1cc(Nc2cn[nH]c2-c2ccc(Cl)cc2)cc(OC)c1OC",
    "Data Value": 1.16
  },
  {
    "Compound": "COc1ccc2c(c1)C(C)Cc1c(Cl)ncnc1N2C (stereo not drawn)",
    "Data Value": 0.91
  }
]

Enquiry: Recorded log10 TGI for COC(=O)C1=C(c2ccc3c(c2)OCO3)O[C@H](c2cc(OC)c(OC)c(OC)c2)[C@H]1COC(C)=O with HT29 colon, please?
Return: 1.06

Enquiry: Recorded log10 TGI for CCN1CCN(c2ccc(Nc3cc(N(C)C(=O)Nc4c(Cl)c(OC)cc(OC)c4Cl)ncn3)cc2)CC1 with HT29 colon, please?
Return: 0.57

Enquiry: Recorded log10 TGI for O=[N+]([O-])c1ccc(C=C2C(Cl)=C(Cl)C(Cl)=C2Cl)cc1 with HT29 colon, please?
Return: 0.85
